Target: T1, mouse recombinant TGF-β2 (mouse, UniProt P27090 303-414)
T1 sequence (looked up): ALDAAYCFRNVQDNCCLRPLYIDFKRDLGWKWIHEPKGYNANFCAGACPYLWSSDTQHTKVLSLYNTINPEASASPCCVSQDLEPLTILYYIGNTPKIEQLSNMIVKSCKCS
Assay: cell-based or functional assay
Assignment: determine reported RGA (CAGA-12 luc/Smad-2/3 RGA; IC 50 [pM]) for the given binders.
One number for each entry, in pM.

>  <Binder>
MOR14805 (antibody, human IgG1, lambda, V domains shown) VH: QVQLVQSGAEVKKPGESLKISCKGSGYSFTRYYVAWVRQMPGKGLEWMGWIDPGTSNTRYSPSFQGQVTISADKSISTAYLQWSSLKASDTAMYYCARMLAWGWFDYWGQGTLVTVSS VL: SYELTQPLSVSVALGQTARITCSGDNLGGYYAHWYQQKPGQAPVLVIYDKSDRPSGIPERFSGSNSGNTATLTISRAQAGDEADYYCASYDSSLMMVFGGGTKLTVLG

>  <Observed result>
248

$$$$

// moving on: another record for RGA (CAGA-12 luc/Smad-2/3 RGA; IC 50 [pM])
Value of measured RGA (CAGA-12 luc/Smad-2/3 RGA; IC 50 [pM]) for the entry MOR14797 (antibody, human IgG1, kappa, V domains shown, (no LALA)) VH: QVTLRESGPALVKPTQTLTLTCTFSGFSLSTSGMGVGWIRQPPGKALEWLAHIYWNDDKSYSTSLKTRLTISKDTSKNQVVLTMTNMDPVDTATYYCARDFYYSGYFDSWGQGTLVTVSS VL: DIQMTQSPSSLSASVGDRVTITCRASQDISNYLNWYQQKPGKAPKLLIFGASSLQSGVPSRFSGSGSGTDFTLTISSLQPEDFATYYCQQTNTMNTFGQGTKVEIKR : 329
